Values were extracted from ChEMBL document CHEMBL5696440.

# subject-of-test: Prostaglandin G/H synthase 2 (Homo sapiens, UniProt P35354)
# Sequence (P35354 whole entry): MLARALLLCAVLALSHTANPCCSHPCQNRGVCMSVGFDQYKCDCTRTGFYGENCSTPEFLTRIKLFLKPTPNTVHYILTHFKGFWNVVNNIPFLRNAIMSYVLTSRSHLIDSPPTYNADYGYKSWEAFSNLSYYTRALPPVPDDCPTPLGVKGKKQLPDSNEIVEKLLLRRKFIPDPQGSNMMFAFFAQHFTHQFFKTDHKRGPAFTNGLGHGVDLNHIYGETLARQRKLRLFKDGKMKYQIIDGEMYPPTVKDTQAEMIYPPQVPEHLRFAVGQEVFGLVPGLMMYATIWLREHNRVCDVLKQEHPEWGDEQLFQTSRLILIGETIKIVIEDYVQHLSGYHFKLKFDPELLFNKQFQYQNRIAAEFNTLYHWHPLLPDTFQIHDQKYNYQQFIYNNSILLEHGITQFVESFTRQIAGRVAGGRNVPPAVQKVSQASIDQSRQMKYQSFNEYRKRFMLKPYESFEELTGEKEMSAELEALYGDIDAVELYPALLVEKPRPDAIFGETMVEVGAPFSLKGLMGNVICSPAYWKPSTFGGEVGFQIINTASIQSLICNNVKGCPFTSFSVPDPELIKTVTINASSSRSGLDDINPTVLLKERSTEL
property: IC50

Recorded IC50 for CCNC(=O)C[C@@H]1N=C(c2ccc(Cl)cc2)c2cc(OC)ccc2-n2c(C)nnc21 [MOLIBRESIB] on Prostaglandin G/H synthase 2 (Homo sapiens, UniProt P35354) was > 100 µM

---

# subject-of-test: Substance-P receptor (Homo sapiens)
# Sequence (P25103 whole entry): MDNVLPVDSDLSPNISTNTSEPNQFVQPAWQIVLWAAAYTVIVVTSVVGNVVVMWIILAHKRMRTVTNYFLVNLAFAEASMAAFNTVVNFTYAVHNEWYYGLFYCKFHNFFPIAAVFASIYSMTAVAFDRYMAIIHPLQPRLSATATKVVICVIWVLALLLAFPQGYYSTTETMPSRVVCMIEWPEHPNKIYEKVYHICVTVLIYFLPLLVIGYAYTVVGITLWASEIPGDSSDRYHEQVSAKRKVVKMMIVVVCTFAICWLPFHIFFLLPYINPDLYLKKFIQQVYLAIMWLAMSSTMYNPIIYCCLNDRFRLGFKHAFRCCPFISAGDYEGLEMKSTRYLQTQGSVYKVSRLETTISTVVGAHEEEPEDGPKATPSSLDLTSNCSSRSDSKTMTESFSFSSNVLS
# test-summary: Inhibition of human NK1 by intracellular Ca2+ luminescence assay
property: IC50

The reported value for CCNC(=O)C[C@@H]1N=C(c2ccc(Cl)cc2)c2cc(OC)ccc2-n2c(C)nnc21 [MOLIBRESIB] in terms of IC50 is > 40 µM
